Listed below: cell viability values for each entry.
Test system: U2OS
Assay: cell viability relative to DMSO; higher = less toxic
Conditions: 72 h; 1 nM

[
  {
    "compound": "CC(C(=O)O)c1cccc(Oc2ccccc2)c1 (stereo not given)",
    "readout.unit": "%",
    "cell viability": 96.7
  },
  {
    "compound": "CNCc1ccc(-c2[nH]c3cc(F)cc4c3c2CCNC4=O)cc1",
    "readout.unit": "%",
    "cell viability": 101
  },
  {
    "compound": "O=[N+]([O-])c1ncc[nH]1",
    "readout.unit": "%",
    "cell viability": 89.5
  },
  {
    "compound": "CNC[C@H](O)[C@@H](O)[C@H](O)[C@H](O)CO",
    "readout.unit": "%",
    "cell viability": 98.3
  },
  {
    "compound": "Cc1ccc(Sc2cncc3sc(C(N)=O)cc23)cc1",
    "readout.unit": "%",
    "cell viability": 100
  },
  {
    "compound": "O=[N+]([O-])c1ccc(O)c([N+](=O)[O-])c1",
    "readout.unit": "%",
    "cell viability": 96.2
  },
  {
    "compound": "O=C(O)/C=C1\\CCCc2ccccc2[C@H]1O (racemic)",
    "readout.unit": "%",
    "cell viability": 96.7
  },
  {
    "compound": "CN(C)/C=N/c1c(I)cc(I)c(CCC(=O)O)c1I",
    "readout.unit": "%",
    "cell viability": 98.2
  },
  {
    "compound": "CCOc1cc2ncc(C#N)c(Nc3ccc(F)c(Cl)c3)c2cc1NC(=O)/C=C/CN(C)C",
    "readout.unit": "%",
    "cell viability": 99
  },
  {
    "compound": "NC(=O)C1CCCc2c1[nH]c1ccc(Cl)cc21 (stereo not given)",
    "readout.unit": "%",
    "cell viability": 95.9
  }
]
